Molecular target: T1, RSV F B, B Ref (RSV B)
T1 construct: whole, on cells
Test: FACS, % binding to RSV F B variants
measurement.label: % binding (%)

binder="MPK201-v1.2 (antibody, V domains shown) VH: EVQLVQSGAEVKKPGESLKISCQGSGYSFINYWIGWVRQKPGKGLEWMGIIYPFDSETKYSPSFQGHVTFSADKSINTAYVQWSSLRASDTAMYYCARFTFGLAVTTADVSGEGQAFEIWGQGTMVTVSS VL: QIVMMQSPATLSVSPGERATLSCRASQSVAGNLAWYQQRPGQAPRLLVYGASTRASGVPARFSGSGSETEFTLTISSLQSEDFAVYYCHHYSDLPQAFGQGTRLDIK" measurement_label="% binding" val=61.3
binder="MPK176-v4.3 (antibody, V domains shown) VH: QVQLVQSGAEVKKPGASVRVSCKASGYTLTAYGISWVRQAPGQGLEWMGWISPKHGSTHYAQRFQGRVTMTTDTSTSTAYMELRSLRPDDTAVYFCAREGVDIMAVPWYFDYWGQGTLVAVSS VL: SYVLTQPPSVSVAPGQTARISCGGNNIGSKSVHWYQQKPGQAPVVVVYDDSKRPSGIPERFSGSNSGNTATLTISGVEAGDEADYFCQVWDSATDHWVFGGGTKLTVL" measurement_label="% binding" val=34.2
binder="MPK190-v1.3-rIgG1m17,1-LS (antibody, V domains shown) VH: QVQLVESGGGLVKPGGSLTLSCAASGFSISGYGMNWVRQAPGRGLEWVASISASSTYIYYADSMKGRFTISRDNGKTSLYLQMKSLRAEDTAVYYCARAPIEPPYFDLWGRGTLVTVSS VL: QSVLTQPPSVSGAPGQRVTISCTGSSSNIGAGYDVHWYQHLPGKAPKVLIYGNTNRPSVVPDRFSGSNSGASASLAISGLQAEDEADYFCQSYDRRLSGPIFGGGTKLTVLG" measurement_label="% binding" val=72.1

This collection of values is drawn from patent US20260028391A1.
